Listing: CC50 of selected compounds
System: Hepatoblastoma cell line
Assay: Cytotoxic concentration against Hepatitis B virus in human hepatoblastoma cell line
Format: functional
measured-quantity: CC50 (µM)

- compound: "Nc1ccn([C@@H]2CS[C@H](CO)O2)c(=O)n1"
  measured-quantity: "CC50"
  unit-info: "µM"
  readout-qualifier: "="
  number: 1880
- compound: "COC1CC(n2cnc3c(N)ncnc32)C(O)C1O (stereo unspecified)"
  measured-quantity: "CC50"
  unit-info: "µM"
  readout-qualifier: ">"
  number: 1000
- compound: "Nc1ncnc2c1ncn2[C@H]1C=C[C@H](O)[C@@H]1O"
  measured-quantity: "CC50"
  unit-info: "µM"
  readout-qualifier: "="
  number: 325
- compound: "Nc1ncnc2c1ncn2[C@@H]1C[C@H](O)[C@@H](O)[C@H]1O"
  measured-quantity: "CC50"
  unit-info: "µM"
  readout-qualifier: "="
  number: 446
- compound: "Nc1ncnc2c1ncn2[C@H]1C[C@@H](O)[C@H](O)[C@@H]1O"
  measured-quantity: "CC50"
  unit-info: "µM"
  readout-qualifier: "="
  number: 1880
- compound: "Nc1ncnc2c1ncn2[C@@H]1CC[C@@H](O)[C@H]1O"
  measured-quantity: "CC50"
  unit-info: "µM"
  readout-qualifier: "="
  number: 93
